# credit: patent US9776995B2

Target: Nav 1.7 (Homo sapiens (Human), UniProt Q15858)
Sequence (Q15858 whole entry): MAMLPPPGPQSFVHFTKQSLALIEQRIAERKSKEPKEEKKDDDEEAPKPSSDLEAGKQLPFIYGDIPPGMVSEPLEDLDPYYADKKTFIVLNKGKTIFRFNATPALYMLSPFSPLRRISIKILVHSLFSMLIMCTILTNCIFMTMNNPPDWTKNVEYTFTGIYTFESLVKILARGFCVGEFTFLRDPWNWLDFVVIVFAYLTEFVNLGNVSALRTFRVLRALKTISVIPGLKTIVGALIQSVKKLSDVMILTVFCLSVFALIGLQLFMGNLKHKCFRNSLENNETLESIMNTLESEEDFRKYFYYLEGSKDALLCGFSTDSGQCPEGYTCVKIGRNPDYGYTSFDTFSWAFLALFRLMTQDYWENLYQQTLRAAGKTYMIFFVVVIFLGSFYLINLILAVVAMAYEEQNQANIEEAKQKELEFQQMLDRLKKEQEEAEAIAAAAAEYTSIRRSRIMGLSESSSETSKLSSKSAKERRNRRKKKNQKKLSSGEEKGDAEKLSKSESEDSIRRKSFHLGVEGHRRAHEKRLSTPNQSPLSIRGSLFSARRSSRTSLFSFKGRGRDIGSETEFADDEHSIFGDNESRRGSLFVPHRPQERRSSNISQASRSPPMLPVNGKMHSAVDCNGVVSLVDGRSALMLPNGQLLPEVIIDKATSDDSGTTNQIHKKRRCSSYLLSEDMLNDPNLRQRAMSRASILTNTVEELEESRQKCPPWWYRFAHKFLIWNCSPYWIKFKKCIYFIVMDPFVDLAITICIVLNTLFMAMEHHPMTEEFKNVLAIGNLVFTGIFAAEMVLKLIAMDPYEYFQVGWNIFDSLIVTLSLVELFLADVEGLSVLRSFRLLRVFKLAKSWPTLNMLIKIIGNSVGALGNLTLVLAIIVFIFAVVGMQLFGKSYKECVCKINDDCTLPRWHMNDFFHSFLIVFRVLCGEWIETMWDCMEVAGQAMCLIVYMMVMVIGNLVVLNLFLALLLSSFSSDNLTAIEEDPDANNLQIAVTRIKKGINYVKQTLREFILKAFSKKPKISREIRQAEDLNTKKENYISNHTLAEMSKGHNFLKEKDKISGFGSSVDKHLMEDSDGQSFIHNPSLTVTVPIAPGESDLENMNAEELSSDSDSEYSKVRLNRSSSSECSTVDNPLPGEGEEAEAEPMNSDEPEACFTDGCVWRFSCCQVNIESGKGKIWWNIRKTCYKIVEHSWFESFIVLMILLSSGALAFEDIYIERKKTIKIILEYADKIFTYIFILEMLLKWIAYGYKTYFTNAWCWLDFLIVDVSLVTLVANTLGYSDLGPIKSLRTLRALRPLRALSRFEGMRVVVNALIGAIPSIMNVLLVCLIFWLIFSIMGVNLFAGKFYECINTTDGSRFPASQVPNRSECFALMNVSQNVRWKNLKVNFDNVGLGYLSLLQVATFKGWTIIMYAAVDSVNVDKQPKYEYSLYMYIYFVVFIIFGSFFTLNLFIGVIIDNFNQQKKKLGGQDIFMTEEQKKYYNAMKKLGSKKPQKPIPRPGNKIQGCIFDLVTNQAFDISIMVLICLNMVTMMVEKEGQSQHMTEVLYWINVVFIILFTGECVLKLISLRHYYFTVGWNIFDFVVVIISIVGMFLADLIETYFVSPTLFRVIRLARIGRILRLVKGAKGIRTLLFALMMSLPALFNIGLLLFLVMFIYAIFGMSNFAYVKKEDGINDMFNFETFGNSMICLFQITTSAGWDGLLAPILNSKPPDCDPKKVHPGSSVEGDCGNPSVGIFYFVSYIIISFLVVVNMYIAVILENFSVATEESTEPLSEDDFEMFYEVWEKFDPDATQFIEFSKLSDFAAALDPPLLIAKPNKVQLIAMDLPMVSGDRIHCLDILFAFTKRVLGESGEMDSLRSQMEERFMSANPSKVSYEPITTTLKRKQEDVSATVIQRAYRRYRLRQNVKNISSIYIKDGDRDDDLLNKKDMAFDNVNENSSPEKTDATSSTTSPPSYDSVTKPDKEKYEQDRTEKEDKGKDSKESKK
Assay: Nav 1.7 in vitro PX assay (PatchXpress whole cell voltage clamp);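 note: holding potential set for 20 to 50% inactivation, sodium current evoked by a 20 ms step to −10 mV, peak current inhibition read after compound exposure, 3–5 cells per concentration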
Assay type: cell-based
Details: PatchXpress (PX)

- molecule: "COc1cc(-c2ccc(F)c(C)c2)c(C)cc1-c1ncnc2cc(S(=O)(=O)Nc3ccon3)ccc12 [Example 261]"
  target: "Nav 1.7 (Homo sapiens (Human), UniProt Q15858)"
  IC50, nM: 38.1
- molecule: "COc1cc(-c2cccc(F)c2)c(Cl)cc1-c1nccc2cc(S(=O)(=O)Nc3ncco3)ccc12 [Example 257]"
  target: "Nav 1.7 (Homo sapiens (Human), UniProt Q15858)"
  IC50, nM: 222
- molecule: "COc1cc(C(F)(F)F)c(C2CC2)cc1-c1nccc2cc(S(=O)(=O)Nc3ccon3)ccc12 [Example 258]"
  target: "Nav 1.7 (Homo sapiens (Human), UniProt Q15858)"
  IC50, nM: 543
- molecule: "COc1cc(-c2ccc(Cl)c(C)c2)c(Cl)cc1-c1nncc2cc(S(=O)(=O)Nc3ccsn3)ccc12 [Example 255]"
  target: "Nav 1.7 (Homo sapiens (Human), UniProt Q15858)"
  IC50, nM: 320
- molecule: "COc1cc(-c2cc(C)cc(F)c2)c(C)cc1-c1ncnc2cc(S(=O)(=O)Nc3ccon3)ccc12 [Example 260]"
  target: "Nav 1.7 (Homo sapiens (Human), UniProt Q15858)"
  IC50, nM: 36.7
- molecule: "COc1cc(-c2cccc(Cl)c2)c(C)cc1-c1nccc2cc(S(=O)(=O)Nc3ccon3)ccc12 [Example 277]"
  target: "Nav 1.7 (Homo sapiens (Human), UniProt Q15858)"
  IC50, nM: 40
- molecule: "COc1cc(-c2cc(F)cc(F)c2)c(Cl)cc1-c1nncc2cc(S(=O)(=O)Nc3ccsn3)ccc12 [Example 256]"
  target: "Nav 1.7 (Homo sapiens (Human), UniProt Q15858)"
  IC50, nM: 85.2

====

Molecular target: Nav 1.7 (Homo sapiens (Human))
Assay: in-vitro Nav 1.7 PX data
Format: cell-based
Conditions: in-vitro PX (PatchXpress) data
pIC50: −log10 of the molar value.
Some compounds, each annotated with its measured pIC50.

- molecule: "COc1cc(Oc2cc(C)ccc2F)ccc1-c1nccc2cc(S(=O)(=O)Nc3nncs3)ccc12"
  pIC50: 6.61
- molecule: "COc1cc(Oc2ccc(F)cc2)ccc1-c1nccc2cc(S(=O)(=O)Nc3nncs3)ccc12"
  pIC50: 6.85
- molecule: "COc1cc(-c2cccc(C(F)(F)F)c2)c(C#N)cc1-c1nccc2cc(S(=O)(=O)Nc3ccncn3)ccc12"
  pIC50: 7.44
- molecule: "COc1ccc(-c2ccc(-c3nccc4cc(S(=O)(=O)Nc5nncs5)ccc34)c(OC)c2)c(F)n1"
  pIC50: 5.98

====

Target: UniProt:Q15858
Test: in-vitro Nav 1.7 PX data
Assay type: cell-based
Conditions: in-vitro PX (PatchXpress) data
IC50 values for the compounds below.

- molecule: "COc1cc(Oc2cc(C)cc(F)c2)ccc1-c1nccc2cc(S(=O)(=O)Nc3nncs3)ccc12"
  target: "UniProt:Q15858"
  unitAnnotation: "nM"
  IC50: 129
- molecule: "COc1cc(-c2ccc(C(F)(F)F)cc2)c(C#N)cc1-c1nccc2cc(S(=O)(=O)Nc3ccncn3)ccc12"
  target: "UniProt:Q15858"
  unitAnnotation: "nM"
  IC50: 56
- molecule: "COc1cc(-c2ccc(-c3nccc4cc(S(=O)(=O)Nc5nncs5)ccc34)c(OC)c2)c(F)cn1"
  target: "UniProt:Q15858"
  unitAnnotation: "nM"
  IC50: 394
- molecule: "O=S(=O)(Nc1ccncn1)c1ccc2c(-c3ccc(C(F)(F)F)cc3C3CC3)ncnc2c1"
  target: "UniProt:Q15858"
  unitAnnotation: "nM"
  IC50: 744
- molecule: "COc1cc(Oc2cc(C)cc(C)c2)ccc1-c1nccc2cc(S(=O)(=O)Nc3ccncn3)ccc12"
  target: "UniProt:Q15858"
  unitAnnotation: "nM"
  IC50: 520
- molecule: "COc1cc(Oc2ccc(C)c(F)c2)ccc1-c1nccc2cc(S(=O)(=O)Nc3nncs3)ccc12"
  target: "UniProt:Q15858"
  unitAnnotation: "nM"
  IC50: 133
- molecule: "COc1cc(Oc2cc(F)cc(F)c2)ccc1-c1nccc2cc(S(=O)(=O)Nc3ccncn3)ccc12"
  target: "UniProt:Q15858"
  unitAnnotation: "nM"
  IC50: 18700
